# Tested on: SNB-75 CNS
# test-method-notes: NCI-60 one-dose screen, 48 h
# experimental-conditions: 10 µM unless noted
# Description: Growth inhibition of the SNB-75 human tumor cell line is measured as a screen for anti-cancer activity. Cells are grown in 96 well plates and exposed to the test compound for 48 hours. Compounds are tested at a single concentration, which is 10^-5 M for most compounds. The reported endpoint is percent growth (GI% or GIPRCNT), where numbers from 0 - 100% represent growth inhibition, and numbers from -100% - 0 represent cell death. For example, a value of 40 represents 60% growth inhibition. […]
Compounds without any hit were thinned out: in the full panel of roughly 83,000, 20% have a hit. Active and inactive are the calls of the source. Rule for the calls: active = growth percent below 10; inactive = the rest.
API: response.call in active, inactive

Q: Could you check what this test reported for C#CCNC(=O)[C@]1(C)CC[C@]2(C)CC[C@@H]3C(=CC[C@H]4[C@@]3(C)CC[C@H]3C(C)(C)C(=O)CC[C@]43C)[C@@H]2C1 ?
Result: inactive

Q: GET /call?item= Cc1ccc(S(=O)(=O)Nn2c3c(cc(-c4nc5ccccc5s4)c2=O)CCCCCC3)cc1 returns the recorded outcome of this test.
Result: inactive

Q: Test call, this compound: Nc1n[nH]c2cccc(C#Cc3cccc(C(=O)Nc4cc(CN5CCOCC5)cc(C(F)(F)F)c4)c3)c12
Result: inactive

Q: # fetch the recorded call for COc1c(Cl)c2c(c(OC)c1OC)-c1ccc(SC)c(=O)cc1[C@@H](NC(=O)OCC(F)(F)F)CC2 here
Result: inactive

Q: Given CCOC(=O)Oc1c(OC)cc(C(=O)c2ccc(OC)c(O)c2OC)cc1OC , state the outcome it received in this test.
Result: inactive

Q: Per the assay record, what outcome was assigned to O=C(Cn1c[n+](CC(=O)c2ccc([N+](=O)[O-])cc2)c2ccccc21)Nc1cccc2cccnc12 ?
Result: inactive

Q: I would be grateful if you could indicate the recorded call for C#CCNC(=O)[C@H](Cc1ccccc1)NC(=O)[C@]12CC[C@@H](C(=C)C)[C@@H]1[C@H]1CC[C@@H]3[C@@]4(C)CCC(=O)C(C)(C)[C@@H]4CC[C@@]3(C)[C@]1(C)CC2 .
Result: inactive

Q: Which outcome did this test record for the compound COC(=O)C(CC=O)C(=O)C(=O)Nc1cccc(C(F)(F)F)c1 (stereo not given) ?
Result: inactive

Q: Returns: the outcome recorded for CCOC(=O)[C@@H](C)C[C@H](Cc1ccccc1)NC(=O)c1csc([C@@H](C[C@H](C(C)C)N(C)C(=O)[C@@H](NC(=O)[C@H]2C[C@H](O[Si](C)(C)C(C)(C)C)CCN2C)C(C)C)OC(C)=O)n1 in this assay.
Result: active

Q: Dear all, I need the recorded test outcome for O=C(/C=C/c1ccc(Cl)cc1)c1ccc(NC(=O)N2CCN(c3cc4c(cc3F)c(=O)c(C(=O)O)cn4C3CC3)CC2)cc1 , thank you.
Result: inactive

Q: Which outcome was entered for the compound COc1ccc(C(=O)c2nc3ccccc3n2CC(=O)c2ccc(F)cc2)cc1 in this test?
Result: inactive

Q: # fetch the recorded call for COc1cc2c(=O)n(CCN)c3c4cc5c(cc4ccc3c2cc1OC)OCO5 here
Result: inactive

Q: Lab log entry: Cc1cc2nc3c4cc([N+](=O)[O-])ccc4n(CCN(C)C)c3nc2cc1C — outcome as called in the assay?
Result: active

Q: Could you kindly confirm the outcome this assay logged for CC(Sc1nc2sc3c(c2c(=O)n1-c1ccc(Cl)cc1)CCCC3)C(=O)Nc1nc(-c2ccc(Br)cc2)cs1 (stereo not given) ?
Result: inactive

Q: Assay result, entry O=C(/C=C(O)/C=C/c1ccc(SC(F)(F)F)cc1)/C=C/c1ccc(SC(F)(F)F)cc1 — outcome?
Result: inactive

Q: Outcome? CC1(C)CC[C@]23CC[C@]4(C)[C@H](CC[C@@H]5[C@@]6(C)CCCNC(C)(C)[C@@H]6CC[C@]54C)[C@H]2[C@H]1OC3
Result: active

Q: Per the records of this test, what outcome belongs to Cn1cc(CC2CC(=O)N(c3ccccc3)C2=O)sc1=NC(=O)c1ccccc1 (stereo not given) ?
Result: inactive

Q: What was the test verdict on O=[N+]([O-])CC(c1ccccc1)c1c[nH]c2ccccc12 (stereo not given) ?
Result: inactive

Q: Which outcome was entered for the compound CC(C)c1ccc(Nc2ccc3c(OCCCN4CCN(C)CC4)cccc3n2)cc1 in this test?
Result: inactive

Q: Recorded test outcome, item CCCOc1ccc(/C=N/Nc2cc(C)nc3ccc(Br)cc23)cc1
Result: inactive

Q: Please share the test call associated with O=[N+]([O-])CC(c1ccccc1F)c1c[nH]c2ccccc12 (stereo not given) .
Result: inactive

Q: For COc1cc(NC(=O)CSc2nc3ccc(C)cc3c(=O)n2Cc2ccccc2)cc(OC)c1OC , which call appears in the assay record?
Result: active

Q: Kindly provide the recorded test outcome for the following compound: COc1ccc(/C=C/C(=O)Nc2cc(/C=C\c3cc(OC)c(OC)c(OC)c3)cc(OC)c2OC)cc1OC
Result: inactive

Q: // return assay outcome for O=C(/C=C(/C=C/c1csc2ccccc12)OB(F)F)/C=C/c1csc2ccccc12
Result: inactive

Q: Which outcome was entered for the compound O=C(CCN1CCCC1)Nc1ccc2c(NCCCc3ccccc3)c3ccccc3nc2c1 in this test?
Result: inactive

Q: Which result was noted for this compound in the test: CC(=O)Oc1ccc(/C=N/NC(N)=S)nc1
Result: active

Q: Check the results log: what was the call for C=C(C)[C@@H]1CC[C@]2(C(=O)N[C@H](CO)Cc3ccccc3)CC[C@]3(C)[C@H](CC[C@@H]4[C@@]5(C)CCCNC(C)(C)[C@@H]5CC[C@]43C)[C@@H]12 ?
Result: active

Q: Which outcome was entered for the compound N#C/C(=C\c1ccc([N+](=O)[O-])s1)c1nc2cc(Cl)ccc2s1 in this test?
Result: inactive

Q: State the result this test recorded for CCc1c(Cl)nc(N)nc1Nc1ccc(C)c(C)c1 .
Result: inactive

Q: Entry O=C1Nc2cc(-c3ccc(NC(=O)C4CC4)cc3)ccc2/C1=C/c1ccc[nH]1 : call = ?
Result: inactive

Q: Which outcome did this test record for the compound O=C(O)c1ccc(-c2nn(-c3ccc(C(F)(F)F)cc3)cc2CNc2ccc(Oc3ccccc3)cc2)cc1 ?
Result: inactive

Q: Returns: the outcome recorded for O=Cc1cc2ccccc2nc1Oc1ccc(C(F)(F)F)cc1 in this assay.
Result: inactive

Q: Answer briefly: the call reported for NS(=O)(=O)c1ccc(CCN2C(=O)c3cc(Cl)c(Cl)cc3C2=O)cc1 in this assay.
Result: inactive

Q: Would you mind telling me which call this test gave OC(c1cccc(C(F)(F)F)c1)c1cnccc1NC1CCCCC1 (stereo not given) ?
Result: inactive

Q: State the result this test recorded for CCCN1[C@@H]2CC[C@H]1/C(=C\c1ccc(OC)c(OC)c1)C(=O)/C2=C/c1ccc(OC)c(OC)c1 .
Result: inactive

* * *

# System: MOLT-4 leukemia
# test-method-notes: NCI-60 one-dose screen, 48 h
# experimental-conditions: 10 µM unless noted
This is part of a sample that, as a whole, favours compounds with a hit. Of some 83,000 tested, about 20% had one in any assay. Active and inactive are the calls of the source. The calls were made as follows: active = growth percent below 10; inactive = the rest.
// allowed return values: active, inactive

Q: Which result was noted for this molecule in the test: Cc1ccc(-c2nc3ccccn3c2/C=C2/C(=O)Nc3cc(Cl)ccc32)cc1
Result: inactive

Q: So what was the verdict on O=C(Cc1ccc(/C=C/C(=O)c2nccs2)cc1)Nc1ccccc1 in this test?
Result: active

Q: Which result was noted for this molecule in the test: COc1ccc(CNCCN2C(=O)c3ccc4c5c(ccc(c35)C2=O)C(=O)N(CCNCc2ccc(OC)c(OC)c2OC)C4=O)c(OC)c1OC
Result: active

Q: Assay result, entry N#C/C(=C\c1ccc([N+](=O)[O-])s1)c1nc2cc(Br)ccc2s1 — outcome?
Result: active

Q: Hello, I am checking results. What call was entered for COc1cc2nc(-c3ccc(Cl)cc3)cc(OCCCN3CCC(O)CC3)c2cc1OC ?
Result: inactive

Q: Recorded test call requested for NS(=O)(=O)c1ccc(CCn2c(SCC(=O)c3ccc(Cl)cc3)nc3ccccc3c2=O)cc1
Result: inactive

Q: // outcome(item) with item = N#Cc1cccc(-c2ccc3c(c2)NC(=O)/C3=C\c2ccc[nH]2)c1
Result: inactive

Q: State the result this test recorded for N#C/C(=C\c1ccccn1)c1nc2cc(Cl)ccc2s1 .
Result: inactive

Q: Identify the outcome logged in this assay for the molecule shown: N#C/C(=C\c1c(-c2ccccc2)[nH]c2ccccc12)C(=O)c1ccc(Cl)cc1
Result: inactive

Q: Per the assay record, what outcome was assigned to O=C(CCN1CCCC1)Nc1ccc2c(NCCCc3ccccc3)c3ccccc3nc2c1 ?
Result: active

* * *

# Tested on: OVCAR-3 ovarian
# test-method-notes: NCI-60 one-dose screen, 48 h (100 = growth as untreated, 0 = no growth, -100 = all killed)
# experimental-conditions: 10 µM unless noted
About 83,000 compounds went through this panel and 20% of them were active in at least one assay; those are over-represented in the sample as a whole.
Classes (growth): bottom end (below 60%), midrange (60% to below 90%), top end (90% or more)

Q: Hey, which category is Nc1c(C(=O)Nc2cccc3cnccc23)sc2nc3c(cc12)CN(Cc1ccccc1)CC3 in, do you know?
Result: top end

Q: Category of COc1cc2c(=O)n(CCCN(C)C)c3c4cc5c(cc4ccc3c2cc1OC)OCO5 , please.
Result: midrange

Q: Textbook exercise: identify the category of the compound given here, CNCCn1c(=O)c2cc(OC)c(OC)cc2c2ccc3cc4c(cc3c21)OCO4 , according to its measured value.
Result: bottom end

Q: Into which bin does this compound go? CCCNC(=O)Oc1ccc(/C(=C(\C)c2ccccc2)c2ccc(OCCCN(C)C)cc2)cc1
Result: midrange

Q: Consider COc1cc2c(-c3cc4c(cc3CNCCc3ccc5c(c3)OCO5)OCO4)cccc2c(OC)c1O . To which growth class does it belong?
Result: midrange

Q: Please indicate the class for CCN1Cc2nc3sc(C)c(C)c3c(=O)n2C=C1C based on its growth.
Result: bottom end

Q: Record COc1cc(/C=N/O)nc(-c2ccccn2)c1 — which class?
Result: bottom end

Q: Consider Cc1nnc2c(Cc3ccccc3)nc3ccccc3n12 . To which growth class does it belong?
Result: top end

Attribution: PubChem BioAssay (NCI)
